Data origin, for the record: patent US8691990B2

Please respond with reported pEC50 for every item in the list.
- system-under-test: murine Nurr 1 receptor (Mus musculus, UniProt Q06219)
- Construct: a cell line (N2A) endogenously expressing the murine Nurr 1 receptor
- Sequence (Q06219 whole entry): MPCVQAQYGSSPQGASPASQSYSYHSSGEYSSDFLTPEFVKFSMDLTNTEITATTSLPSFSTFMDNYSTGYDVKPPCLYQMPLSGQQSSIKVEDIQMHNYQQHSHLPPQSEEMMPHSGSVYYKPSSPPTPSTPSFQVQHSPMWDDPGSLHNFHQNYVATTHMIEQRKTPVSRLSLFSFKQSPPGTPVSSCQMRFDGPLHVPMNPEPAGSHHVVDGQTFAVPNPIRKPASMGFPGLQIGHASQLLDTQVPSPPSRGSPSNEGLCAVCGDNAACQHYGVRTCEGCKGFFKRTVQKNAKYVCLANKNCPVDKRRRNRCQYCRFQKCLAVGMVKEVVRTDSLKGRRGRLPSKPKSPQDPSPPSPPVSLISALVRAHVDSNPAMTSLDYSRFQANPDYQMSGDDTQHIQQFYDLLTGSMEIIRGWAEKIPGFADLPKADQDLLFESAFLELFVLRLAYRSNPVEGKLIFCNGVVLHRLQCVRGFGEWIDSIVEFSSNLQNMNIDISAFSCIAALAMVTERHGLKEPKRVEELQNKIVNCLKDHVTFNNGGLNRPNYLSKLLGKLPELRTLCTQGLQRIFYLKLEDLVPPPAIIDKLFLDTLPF
- protocol-details: In vitro activity on N2A cells (NBRE-luciferase reporter gene)
- test-conditions: N2A cell line endogenously expressing Nurr 1, stably transfected with 8NBRE-luciferase; products incubated 24 hours
// pEC50 is dimensionless: -log10 of concentration (M)

query: Need pEC50 of O=C(Nc1cccc(F)c1F)c1cn2cc(-c3ccccn3)ccc2n1 , thanks.
result: 8.92

query: Need pEC50 of O=C(Nc1ccccc1)c1cn2cc(-c3cn[nH]c3)ccc2n1 , thanks.
result: 8.96

query: Need pEC50 of O=C(Nc1ccccc1)c1cn2cc(-c3ccccn3)ccc2n1 , thanks.
result: 9.05

query: Need pEC50 of O=C(Nc1ccccc1)c1cn2cc(C3=NCCN3)ccc2n1 , thanks.
result: 7.57

query: Need pEC50 of O=C(Nc1cccc(F)c1)c1cn2cc(-c3nc[nH]n3)ccc2n1 , thanks.
result: 9.40

query: Need pEC50 of O=C(Nc1cc(F)cc(F)c1)c1cn2cc(-c3ccoc3)ccc2n1 , thanks.
result: 9.05
